pKi: −log10 of the molar value.
Record: pKi reported on human CB1 receptor (CNR1) (Homo sapiens (Human)).
Sequence (P21554 whole entry): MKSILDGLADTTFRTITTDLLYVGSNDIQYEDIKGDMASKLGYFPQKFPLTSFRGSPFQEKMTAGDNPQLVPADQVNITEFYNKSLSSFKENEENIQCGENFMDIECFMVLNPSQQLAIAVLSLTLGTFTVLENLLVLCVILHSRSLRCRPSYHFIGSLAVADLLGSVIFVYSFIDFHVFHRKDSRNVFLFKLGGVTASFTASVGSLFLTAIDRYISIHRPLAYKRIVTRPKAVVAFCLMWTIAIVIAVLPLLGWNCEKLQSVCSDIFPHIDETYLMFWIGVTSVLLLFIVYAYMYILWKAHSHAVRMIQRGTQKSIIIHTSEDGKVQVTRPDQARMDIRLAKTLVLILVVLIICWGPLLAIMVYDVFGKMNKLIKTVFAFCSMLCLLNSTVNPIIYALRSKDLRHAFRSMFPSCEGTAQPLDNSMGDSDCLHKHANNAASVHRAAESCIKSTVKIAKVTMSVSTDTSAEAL

The following compounds have reported results that may help.
{"compound": "CC(C)(C)c1nc(N2CC[C@@H](S)C2)c2nnn(Cc3ccccc3Cl)c2n1 (single isomer, unassigned)", "pKi": "< 5.00"}
{"compound": "CC(C)(C)c1nc(N2CC[C@H](O)C2)c2nnn(Cc3ccccc3S(=O)(=O)F)c2n1", "pKi": "< 5.00"}

Consider now this further compound.
Query: Return the recorded pKi value; entry: Cc1nonc1Cn1nnc2c(N3CCC(N=[N+]=[N-])C3)nc(C(C)(C)C)nc21 (stereo not drawn)
Response: < 5.00
